study.target: Adenosine receptor A3 (Rattus norvegicus, UniProt P28647)
Sequence (P28647 whole entry): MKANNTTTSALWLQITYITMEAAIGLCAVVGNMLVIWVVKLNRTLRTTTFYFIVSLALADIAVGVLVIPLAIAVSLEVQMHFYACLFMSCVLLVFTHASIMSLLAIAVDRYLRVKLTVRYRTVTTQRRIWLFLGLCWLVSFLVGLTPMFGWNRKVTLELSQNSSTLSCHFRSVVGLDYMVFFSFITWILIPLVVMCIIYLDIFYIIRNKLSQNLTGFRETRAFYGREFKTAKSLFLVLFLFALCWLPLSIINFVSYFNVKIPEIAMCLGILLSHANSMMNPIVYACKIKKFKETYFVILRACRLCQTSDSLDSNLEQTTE
Let's look at some Ki data for Adenosine receptor A3 (Rattus norvegicus, UniProt P28647) that I collected from the literature.
Dear colleague, please return just the value in nM, with no unit written.

Any idea what Ki was measured for CCNC(=O)[C@H]1O[C@@H](n2cnc3c(NC(=O)Nc4ccc(OC)cc4)nc(Cl)nc32)[C@H](O)[C@@H]1O ? 17.1

Quick check: Ki of C[C@@]1(O)[C@H](O)[C@@H](CO)O[C@H]1n1cnc2c(NC3CCCC3)ncnc21 ? 208

For CCNC(=O)[C@H]1O[C@@H](n2cnc3c(NC(=O)Nc4cccc(Cl)c4)nc(C#Cc4ccccc4)nc32)[C@H](O)[C@@H]1O , what is its reported Ki? 611

What value of Ki has been recorded for this entry: CNC(=O)C12C[C@@H]1[C@@H](n1cnc3c(NCc4cccc(Cl)c4)nc(C#CCCCC(=O)O)nc31)[C@H](O)[C@@H]2O (single isomer, unassigned) 66.5

GET /values?readout=Ki&item= CCNC(=O)[C@H]1O[C@@H](n2cnc3c(NC(=O)Nc4ccc(S(=O)(=O)Nc5ccccn5)cc4)ncnc32)[C@H](O)[C@@H]1O 54.1

// returns reported Ki for input CCNC(=O)[C@H]1O[C@@H](n2cnc3c(NC(=O)Nc4cccc(Cl)c4)nc(C#CC(O)c4ccccc4)nc32)[C@H](O)[C@@H]1O (some centres not stated) 696
